// provenance: ChEMBL document CHEMBL5506007

Target: UniProt:Q86X55
Sequence (Q86X55 whole entry): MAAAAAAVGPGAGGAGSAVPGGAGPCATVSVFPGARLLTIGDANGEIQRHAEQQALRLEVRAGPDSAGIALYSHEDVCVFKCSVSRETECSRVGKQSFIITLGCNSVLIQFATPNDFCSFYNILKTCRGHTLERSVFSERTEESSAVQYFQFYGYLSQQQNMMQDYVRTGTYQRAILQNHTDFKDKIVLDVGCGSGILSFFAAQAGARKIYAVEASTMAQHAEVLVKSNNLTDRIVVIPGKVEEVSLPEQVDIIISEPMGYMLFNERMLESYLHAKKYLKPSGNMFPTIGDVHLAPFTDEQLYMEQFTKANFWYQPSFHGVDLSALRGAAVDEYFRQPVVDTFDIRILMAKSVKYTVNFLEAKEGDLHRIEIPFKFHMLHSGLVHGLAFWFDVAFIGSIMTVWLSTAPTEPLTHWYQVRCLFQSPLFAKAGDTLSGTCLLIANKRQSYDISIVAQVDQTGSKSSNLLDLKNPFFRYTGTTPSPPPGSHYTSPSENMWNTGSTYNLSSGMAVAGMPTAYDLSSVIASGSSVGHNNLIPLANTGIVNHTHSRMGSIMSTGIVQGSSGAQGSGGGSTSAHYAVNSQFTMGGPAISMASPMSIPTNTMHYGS
Experiment: Inhibition of CARM1 (unknown origin) using histone H3 (21 to 44 residues) and SAM as substrates by AlphaLISA assay
Parameter: IC50 (nM)
Field format: number, assumed nM, no unit text.

Fill blank: measured IC50 of the compound CCOCC1(COCC)CCC(Oc2ccccc2CN(C)C[C@H](O)CNC)CC1 is ____.
37

Fill blank: measured IC50 of the compound CNCCN(C)Cc1ccccc1OC1CCC(COC)(COC)CC1.Cl.Cl is ____.
7

Fill blank: measured IC50 of the compound CCOCC1(COCC)CCC(Oc2ccccc2CN(C)C[C@@H](O)CNC)CC1 is ____.
9

Fill blank: measured IC50 of the compound CCOCC1(COCC)CCC(c2n[nH]cc2CN(C)CCNC)CC1 is ____.
12

###

Provide the recorded half-life for the entries that follow.
experiment: in vitro; conditions: mouse, liver microsomes
Description: Metabolic stability in mouse liver microsomes assessed as half life by LC-MS/MS analysis
Field format: number, assumed h, no unit text.

Fill blank: measured half-life of the compound CNCCN(C)Cc1ccccc1OC1CCC(COC)(COC)CC1.Cl.Cl is ____.
0.76

Fill blank: measured half-life of the compound CCOCC1(COCC)CCC(Oc2ccccc2CN(C)C[C@@H](O)CNC)CC1 is ____.
3.62

###

system: HCT-116; assay: Antiproliferative activity against human HCT-116 cells assessed as inhibition of cell growth by CCK-8 assay; type: functional, cell-based
Provide the recorded pIC50 for the entries that follow.
// scale note: pIC50 = -log10(conc_M); give the bare number

What is its pIC50 for HCT-116? Entry: CNCCN(C)Cc1ccccc1OC1CCC(COC)(COC)CC1.Cl.Cl
5.53

What is its pIC50 for HCT-116? Entry: CCOCC1(COCC)CCC(c2n[nH]cc2CN(C)CCNC)CC1
4.42

What is its pIC50 for HCT-116? Entry: CCOCC1(COCC)CCC(Oc2ccccc2CN(C)C[C@@H](O)CNC)CC1
5.50

###

target: UniProt Q9NR22; test: Inhibition of PRMT8 (unknown origin) using SAM and Histone (1 to 21 residues) as substrate preincubated for 60 mins followed by substrate addition and measured after 40 mins by Topcount reader based analysis
Sequence (Q9NR22 whole entry, the tested form may be a part): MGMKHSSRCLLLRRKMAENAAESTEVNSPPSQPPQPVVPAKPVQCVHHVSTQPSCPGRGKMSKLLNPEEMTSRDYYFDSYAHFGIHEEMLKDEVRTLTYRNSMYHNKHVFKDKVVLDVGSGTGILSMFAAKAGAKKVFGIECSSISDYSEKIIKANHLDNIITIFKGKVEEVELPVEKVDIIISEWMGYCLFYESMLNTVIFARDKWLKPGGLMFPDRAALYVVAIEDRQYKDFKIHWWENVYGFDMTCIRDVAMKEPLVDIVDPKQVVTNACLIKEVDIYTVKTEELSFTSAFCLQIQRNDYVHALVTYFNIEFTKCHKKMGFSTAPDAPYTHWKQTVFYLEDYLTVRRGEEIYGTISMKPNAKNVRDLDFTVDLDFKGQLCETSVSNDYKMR
Parameter: IC50 (nM)
Field format: number, assumed nM, no unit text.

Fill blank: measured IC50 of the compound CCOCC1(COCC)CCC(c2n[nH]cc2CN(C)CCNC)CC1 is ____.
1.7

###

target: Histone-arginine methyltransferase CARM1 (Homo sapiens, UniProt Q86X55); experiment: Inhibition of CARM1 (unknown origin)
Parameter: pIC50
// scale note: pIC50 = -log10(conc_M); give the bare number

What is its pIC50 for Histone-arginine methyltransferase CARM1 (Homo sapiens, UniProt Q86X55)? Entry: CNCCN1CCC(c2ccc3c(F)c(-c4ccccc4OC)[nH]c3c2)CC1
7.52
